# ASSAY TARGET: full length TcdB (C. difficile, UniProt P18177 1-2366)
# ASSAY METHOD TEXT: SPR
# TEST SETTINGS: both partners purified
Mark each entry Y if its koff sits below 0.002 s⁻¹, and N for all others.

## Task koff under 0.002 s⁻¹? Item: cspg67 (designed binder) AEELAKKLEEMAEVFKEKGDEEGAKECLKAAKIVRRSKNEEFGKWCIKKAEERLKKL
## Result N

## Task koff under 0.002 s⁻¹? Item: ss2cspg27 (designed binder, also called c27; dual disulfide version of cspg27) MDELVEKLKECLEKLKEKGDIKGVTDTEKAIRICERSRHKEFCEWAIEACEARIKES
## Result Y

## Task koff under 0.002 s⁻¹? Item: ss2cspg35 (designed binder, also called dual disulfide version of cspg35) MDELVEKLKECLEKLKEKGDLKGVKDTERAIRICERSRHKEFCEWAIEKCEARIKES
## Result Y

## Task koff under 0.002 s⁻¹? Item: cspg4 (designed binder) ENKLARAVVTVNKSWLATQLFVRLYRLCKAGDPRCEEVAEKLRKVLELQGVPETDIELVVEVAKG
## Result N

## Task koff under 0.002 s⁻¹? Item: ss2cspg18 (designed binder, also called c18; dual disulfide version of cspg18) MDEKVEKLKECLEKLKEKGDIKGVIDTERAIRICERSRHKEFCEWAIEKCENRIKES
## Result Y

Attribution: paper PMC12501149
